Ref: PubChem BioAssay

composite z-score for assorted compounds
- Study system: Fibroblast growth factor 10 (Homo sapiens) (UniProt O15520)
- Sequence (O15520 whole entry, looked up): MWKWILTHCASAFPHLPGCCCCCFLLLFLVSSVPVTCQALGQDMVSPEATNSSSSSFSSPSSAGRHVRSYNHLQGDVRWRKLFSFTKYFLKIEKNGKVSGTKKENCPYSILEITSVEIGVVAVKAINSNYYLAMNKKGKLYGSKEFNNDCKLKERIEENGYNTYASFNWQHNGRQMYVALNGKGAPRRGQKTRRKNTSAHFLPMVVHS
- Method notes: FGF10 binders on small-molecule microarrays, primary screen, biochemical, small-molecule microarray, 635 nm fluorescence (AID 1102)
- Experimental setup: FGF10 binding, fluorescence 635 nm, higher = more signal
Measured metric: composite z-score

| Chemical string | Study system | Measured result |
| --- | --- | --- |
| CCCNC(=O)OC[C@H]1O[C@H](CCON=C(C)CCN2CCCc3nc(C)c(C)cc32)C=C[C@@H]1Oc1ccc(OC)cc1 | Fibroblast growth factor 10 (Homo sapiens) (UniProt O15520) | 0.653 |
| COC(=O)C1=C(C)N(Cc2ccccc2)[C@]23O[C@](C(=O)OC)(C(=O)N2[C@@H]1c1ccccc1)C(C(=O)OC)=C3C(=O)OC | Fibroblast growth factor 10 (Homo sapiens) (UniProt O15520) | 1.24 |
| CC(C)=CCCC(C)=CCON=C1C[C@@H](O)[C@@H](O)[C@@H]2[C@@H]3C(=O)N(C(C)(C)C)C(=O)[C@@H]3CC[C@@H]12 | Fibroblast growth factor 10 (Homo sapiens) (UniProt O15520) | 0.313 |
| COC(=O)[C@@H]1CC[C@H](C)[C@@H](c2ccc(C)cc2)N1C(=O)c1ccc(C=NO[C@H](C)c2cn([C@H](CO)Cc3ccccc3)nn2)cc1 | Fibroblast growth factor 10 (Homo sapiens) (UniProt O15520) | 0.694 |
| CC(C)=CCCC(C)=CCON=C1C[C@@H](O)[C@@H](O)[C@@H]2[C@@H]3C(=O)N(c4ccc(F)cc4F)C(=O)[C@@H]3CC[C@H]12 | Fibroblast growth factor 10 (Homo sapiens) (UniProt O15520) | 0.0906 |
| COC(=O)CC=C[C@@H](C)[C@@H](C=NO[C@@H](C)c1cn([C@H](CO)Cc2ccccc2)nn1)NS(=O)(=O)c1ccc(C)cc1 | Fibroblast growth factor 10 (Homo sapiens) (UniProt O15520) | 0.582 |
| C#CCCCON=C1[C@H]2CCn3c(=O)n(C)c(=O)n3[C@H]2[C@H](O)[C@@H]2O[C@H]12 | Fibroblast growth factor 10 (Homo sapiens) (UniProt O15520) | 0.478 |
